Experiment: In vivo pharmacokinetics in mice
Design: species or system female NMRI mice
Settings: mouse, whole blood, ip, 10 mg kg^−1, female NMRI mice, blood
Procedure: In vivo pharmacokinetics in mice: Compounds 1 and 28 were dosed orally by gavage as a solution at 5 mg free base per kg or 20 mg free base per kg, respectively (dose volume: 5 or 10 mL kg^−1, dose vehicle: 5 % DMSO, 40 % PEG400, 55 % distilled H2O) to female NMRI mice (n=3). […] After suitable sample preparation, the concentration of each compound in blood was determined by UPLC–MS/MS using a Quattro Premier XE (Waters, USA). […]
MEASUREMENT_TYPE: Cmax (ng/mL)

INSERT INTO assay_data (chem_smiles, measurement_type, unit_symbol, measured) VALUES
  ('O=c1[nH]c2ncc(N3CCCCC3)cc2n1C1CCCCC1', 'Cmax', 'ng/mL', 580);
